target: CDK9/cyclin T1 (Homo sapiens) (UniProt O60563+P50750); assay: Inhibition of recombinant full length human CDK9/cyclin T expressed in baculovirus infected Sf9 insect cells assessed as residual activity at 10 uM using YSPTSPSYSPTSPSYSPTSPSKKKK as substrate in presence of [gamma-33P]ATP
Label rule, in plain words: Activity of 20% and up is Y, under 20% is N.

Query: Given the entry O=C1C2=C(C(=O)N1O)c1cn(c3ccccc13)CCCCCCn1cc2c2ccccc21 , answer whether its Activity meets or surpasses 20%.
Reply: Y

Query: Threshold query (Activity >= 20%) on CC(C)n1cc(C2=C(c3cn(C)c4ccccc34)C(=O)N(O)C2=O)c2ccccc21
Reply: N

Query: Quick check, Activity >= 20%? N#CCCCCCn1cc(C2=C(c3cn(CCCCCC#N)c4ccccc34)C(=O)NC2=O)c2ccccc21
Reply: N

Query: Is it the case that CC(C)n1cc(C2=C(c3c[nH]c4ccccc34)C(=O)N(O)C2=O)c2ccccc21 has Activity reaching or exceeding 20%?
Reply: Y

###

Hi there, I'd appreciate the recorded pIC50 for every entry that follows.
biological target: CDK9/cyclin T1 (Homo sapiens, UniProt P50750); assay: Inhibition of recombinant full length human CDK9/cyclin T expressed in baculovirus infected Sf9 insect cells using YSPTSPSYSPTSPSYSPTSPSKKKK as substrate in presence of [gamma-33P]ATP
Sequence (O60563 whole entry): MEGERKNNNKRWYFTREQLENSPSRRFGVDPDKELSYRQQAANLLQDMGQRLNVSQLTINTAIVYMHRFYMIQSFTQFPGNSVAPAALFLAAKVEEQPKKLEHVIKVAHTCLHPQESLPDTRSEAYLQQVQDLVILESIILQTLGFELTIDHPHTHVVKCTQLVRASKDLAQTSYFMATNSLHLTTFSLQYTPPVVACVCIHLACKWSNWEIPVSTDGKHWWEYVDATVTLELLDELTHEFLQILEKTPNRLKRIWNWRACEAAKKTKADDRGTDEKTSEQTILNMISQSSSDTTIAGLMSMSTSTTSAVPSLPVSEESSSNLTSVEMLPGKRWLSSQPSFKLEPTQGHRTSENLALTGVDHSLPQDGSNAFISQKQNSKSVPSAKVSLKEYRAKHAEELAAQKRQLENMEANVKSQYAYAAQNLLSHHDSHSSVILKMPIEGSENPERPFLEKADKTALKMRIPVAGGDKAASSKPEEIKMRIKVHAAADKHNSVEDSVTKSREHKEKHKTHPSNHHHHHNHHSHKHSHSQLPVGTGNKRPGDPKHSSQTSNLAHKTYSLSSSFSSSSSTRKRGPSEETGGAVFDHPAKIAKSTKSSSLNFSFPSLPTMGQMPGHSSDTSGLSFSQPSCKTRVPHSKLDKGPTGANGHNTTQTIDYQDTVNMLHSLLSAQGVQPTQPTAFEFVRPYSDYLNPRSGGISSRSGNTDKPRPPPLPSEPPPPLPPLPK
Sequence (P50750 whole entry): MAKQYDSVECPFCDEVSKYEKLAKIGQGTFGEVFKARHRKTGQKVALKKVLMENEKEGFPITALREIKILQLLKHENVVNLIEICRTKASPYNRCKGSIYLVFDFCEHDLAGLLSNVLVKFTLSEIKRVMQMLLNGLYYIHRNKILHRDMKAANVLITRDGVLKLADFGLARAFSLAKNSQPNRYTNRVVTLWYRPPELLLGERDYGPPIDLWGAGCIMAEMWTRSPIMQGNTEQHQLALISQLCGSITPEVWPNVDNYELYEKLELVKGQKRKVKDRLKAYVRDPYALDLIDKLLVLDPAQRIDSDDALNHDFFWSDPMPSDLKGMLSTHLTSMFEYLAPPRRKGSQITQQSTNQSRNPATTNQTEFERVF
Please treat pIC50 as minus the base-10 logarithm of the molar concentration.

Query: Return reported pIC50; argument: O=C(O)CCCCCn1cc(C2=C(c3c[nH]c4ccccc34)C(=O)N(O)C2=O)c2ccccc21
Reply: 5.70

Query: Dear colleague, I am looking for the recorded pIC50 of the following compound: Cn1cc(C2=C(c3cn(CCCCCC#N)c4ccccc34)C(=O)N(O)C2=O)c2ccccc21
Reply: 5.68

Query: Entry Cn1cc(C2=C(c3cn(C)c4ccccc34)C(=O)N(O)C2=O)c2ccccc21 has what pIC50?
Reply: 5.05

Query: For the compound N#CCCCCCn1cc(C2=C(c3cn(CCCCCC#N)c4ccccc34)C(=O)NC2=O)c2ccccc21 , what pIC50 is on record?
Reply: 6.38

Query: Param item = CCn1cc(C2=C(c3cn(C(C)C)c4ccccc34)C(=O)N(O)C2=O)c2ccccc21 ; retrieve measured pIC50.
Reply: 6.15

Query: // lookup pIC50 for CC(C)n1cc(C2=C(c3cn(C)c4ccccc34)C(=O)N(O)C2=O)c2ccccc21
Reply: 5.82

###

target: Serine/threonine-protein kinase pim-1 (Homo sapiens, UniProt P11309); assay: Inhibition of recombinant full length human PIM1 expressed in bacteria assessed as residual activity at 10 uM using histone H1 as substrate in presence of [gamma-33P]ATP
Sequence (P11309 whole entry, looked up): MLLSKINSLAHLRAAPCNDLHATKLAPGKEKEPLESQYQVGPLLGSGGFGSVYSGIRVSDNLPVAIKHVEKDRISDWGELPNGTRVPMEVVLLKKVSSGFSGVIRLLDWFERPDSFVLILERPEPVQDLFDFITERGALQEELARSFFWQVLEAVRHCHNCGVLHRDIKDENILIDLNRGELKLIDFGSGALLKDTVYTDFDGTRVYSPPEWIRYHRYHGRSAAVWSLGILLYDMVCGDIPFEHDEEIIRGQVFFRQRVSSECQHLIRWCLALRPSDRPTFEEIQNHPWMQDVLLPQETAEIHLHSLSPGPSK
observation.type: Activity (%)
The answer is to be given in %; state only the numeric part.

Query: Form field: reported Activity of CC(C)n1cc(C2=C(c3c[nH]c4ccccc34)C(=O)N(O)C2=O)c2ccccc21
Reply: 24

Query: # lookup: Activity of N#CCCCCCn1cc(C2=C(c3cn(CCCCCC#N)c4ccccc34)C(=O)N(O)C2=O)c2ccccc21
Reply: 78

Query: Which Activity is reported for this molecule? Cn1cc(C2=C(c3cn(C)c4ncccc34)C(=O)NC2=O)c2ccccc21
Reply: 1

Query: Value lookup for Activity; key = CCn1cc(C2=C(c3cn(C(C)C)c4ccccc34)C(=O)N(O)C2=O)c2ccccc21
Reply: 33

Query: Param item = CCn1cc(C2=C(c3cn(C)c4ccccc34)C(=O)N(O)C2=O)c2ccccc21 ; retrieve measured Activity.
Reply: 30

Query: Given Cn1cc(C2=C(c3cn(CCCCCC#N)c4ccccc34)C(=O)N(O)C2=O)c2ccccc21 , state its recorded Activity.
Reply: 52

Query: Which Activity reading was recorded for the molecule CC(C)n1cc(C2=C(c3cn(C)c4ccccc34)C(=O)N(O)C2=O)c2ccccc21 ?
Reply: 28

Query: Requested field: Activity. Item: N#CCCCCCn1cc(C2=C(c3cn(CCCCCC#N)c4ccccc34)C(=O)NC2=O)c2ccccc21
Reply: 54

Query: Using the record for O=C(O)CCCCCn1cc(C2=C(c3c[nH]c4ccccc34)C(=O)N(O)C2=O)c2ccccc21 , report its Activity.
Reply: 53

Query: Suppose we examine the molecule Cn1cc(C2=C(c3c[nH]c4ccccc34)C(=O)N(O)C2=O)c2ccccc21 ; what Activity value has been reported?
Reply: 8

Query: Look up Activity: O=C1C(c2c[nH]c3ccccc23)=C(c2c[nH]c3ncccc23)C(=O)N1O
Reply: 16

Query: Record request: Activity value, item Cn1cc(C2=C(c3cn(C)c4ccccc34)C(=O)N(O)C2=O)c2ccccc21
Reply: 33

Query: // query Activity value for entry O=C1C2=C(C(=O)N1O)c1cn(c3ccccc13)CCCCCCn1cc2c2ccccc21
Reply: 68

Query: Value lookup for Activity; key = Cn1cc(C2=C(c3cn(CCCCCC(=O)O)c4ccccc34)C(=O)N(O)C2=O)c2ccccc21
Reply: 64

###

Kindly state growth at 10 µM for each of the entries shown.
test system: SW-620; experiment: Cytotoxicity against human SW620 cells assessed as cell growth at 10 uM after 48 hrs by SRB assay relative to control; format: functional; conditions: SW-620, 48 h, read-out: Activity
Use % as the unit, but write only the number.

Query: Request: growth at 10 µM, test system SW-620, entry N#CCCCCCn1cc(C2=C(c3cn(CCCCCC#N)c4ccccc34)C(=O)NC2=O)c2ccccc21
Reply: 108

Query: Param readout = growth at 10 µM; param system = SW-620; param query = CC(C)n1cc(C2=C(c3cn(C)c4ccccc34)C(=O)N(O)C2=O)c2ccccc21 ; response: value
Reply: 101

Query: Lab note: need growth at 10 µM with SW-620 for entry Cn1cc(C2=C(c3cn(C)c4ccccc34)C(=O)N(O)C2=O)c2ccccc21 , please look it up.
Reply: 95.9

Query: Hello, I am looking for reported growth at 10 µM with SW-620 for Cn1cc(C2=C(c3cn(CCCCCC#N)c4ccccc34)C(=O)N(O)C2=O)c2ccccc21 . Could you help?
Reply: 101

Query: What is its growth at 10 µM for SW-620? Entry: O=C(O)CCCCCn1cc(C2=C(c3c[nH]c4ccccc34)C(=O)N(O)C2=O)c2ccccc21
Reply: 95.3

Query: What is its growth at 10 µM for SW-620? Entry: CC(C)n1cc(C2=C(c3c[nH]c4ccccc34)C(=O)N(O)C2=O)c2ccccc21
Reply: 106

###

system: HOP-62; test: Cytotoxicity against human HOP62 cells assessed as cell growth at 10 uM after 48 hrs by SRB assay relative to control; assay type: functional; details: HOP-62, 48 h, read-out: Activity
observation.type: growth at 10 µM (%)
Record the value in %, omitting the unit from your answer.

Query: Give the measured growth at 10 µM of O=C(O)CCCCCn1cc(C2=C(c3c[nH]c4ccccc34)C(=O)N(O)C2=O)c2ccccc21 .
Reply: 86.8

Query: growth at 10 µM; subject: CC(C)n1cc(C2=C(c3cn(C)c4ccccc34)C(=O)N(O)C2=O)c2ccccc21
Reply: 84.6

Query: Report growth at 10 µM for CC(C)n1cc(C2=C(c3c[nH]c4ccccc34)C(=O)N(O)C2=O)c2ccccc21 please.
Reply: 98.6

Query: Data request, read-out growth at 10 µM, for Cn1cc(C2=C(c3cn(CCCCCC(=O)O)c4ccccc34)C(=O)N(O)C2=O)c2ccccc21
Reply: 92

Query: What value of growth at 10 µM has been reported for the following compound? Cn1cc(C2=C(c3cn(CCCCCC#N)c4ccccc34)C(=O)N(O)C2=O)c2ccccc21
Reply: 89.6

Query: Bench note: what growth at 10 µM did O=C1C2=C(C(=O)N1O)c1cn(c3ccccc13)CCCCCCn1cc2c2ccccc21 show?
Reply: 107

Query: So what does the record say about growth at 10 µM for Cn1cc(C2=C(c3cn(C)c4ccccc34)C(=O)N(O)C2=O)c2ccccc21 ?
Reply: 97

Query: Which growth at 10 µM is listed for Cn1cc(C2=C(c3c[nH]c4ccccc34)C(=O)N(O)C2=O)c2ccccc21 ?
Reply: 67.9

Query: Which growth at 10 µM is reported for this compound? N#CCCCCCn1cc(C2=C(c3cn(CCCCCC#N)c4ccccc34)C(=O)NC2=O)c2ccccc21
Reply: 118

###

system: KM12; experiment: Cytotoxicity against human KM12 cells assessed as cell growth at 10 uM after 48 hrs by SRB assay relative to control; assay type: functional; conditions: KM12, 48 h, read-out: Activity
Use 90% as the dividing line for growth at 10 µM, with the line itself on the class 1 side and lower values as class 0.

Query: Threshold query (growth at 10 µM >= 90%) on Cn1cc(C2=C(c3cn(CCCCCC(=O)O)c4ccccc34)C(=O)N(O)C2=O)c2ccccc21
Reply: class 1

Query: Assess whether reported growth at 10 µM for Cn1cc(C2=C(c3cn(C)c4ccccc34)C(=O)N(O)C2=O)c2ccccc21 sits at 90% or higher.
Reply: class 1

Query: Reported growth at 10 µM at or above 90%? N#CCCCCCn1cc(C2=C(c3cn(CCCCCC#N)c4ccccc34)C(=O)NC2=O)c2ccccc21
Reply: class 0

Query: Please indicate if the recorded growth at 10 µM for O=C1C2=C(C(=O)N1O)c1cn(c3ccccc13)CCCCCCn1cc2c2ccccc21 meets or exceeds 90%.
Reply: class 1
